Please go through the items and note down their EC50.
Tested on: Huh-7 cells containing HCV Con1 subgenomic replicon (GS4.1 cells)
assay comment: HCV Replicon Assay (NS4A ELISA)
Type: cell-based
stated conditions: 72 hr, NS4A protein by ELISA

Consider the worked cases shown below.
compound	EC50
COc1ccc2c(O[C@H]3C[C@H]4C(=O)N(C)CCCC/C=C\[C@@H]5C[C@@]5(C(=O)NS(=O)(=O)C5CC5)NC(=O)N4C3)cc(-c3csc(C#N)n3)nc2c1Cl	< 1000 nM
COc1ccc2c(O[C@H]3C[C@H]4C(=O)N(C)CCCC/C=C\[C@@H]5C[C@@]5(C(=O)NS(=O)(=O)C5(C)CC5)NC(=O)N4C3)cc(-c3csc(C#N)n3)nc2c1Cl	< 1000 nM
COc1ccc2c(O[C@@H]3C[C@H]4C(=O)N(C)CCCCC/C=C\[C@@H]5C[C@@]5(C(=O)NS(=O)(=O)C5(C)CC5)NC(=O)N4C3)cc(-c3nc(C(C)C)cs3)nc2c1C [Compound 76a]	1000 to 10000 nM

Provide the documented EC50 with Huh-7 cells containing HCV Con1 subgenomic replicon (GS4.1 cells) as the system for COc1ccc2c(O[C@@H]3C[C@H]4C(=O)N(C)CCCCCC/C=C\[C@@H]5C[C@@]5(C(=O)NS(=O)(=O)C5(C)CC5)NC(=O)N4C3)cc(-c3nc(C(C)C)cs3)nc2c1C [Compound 76b]
1000 to 10000 nM

###

assay comment: Cytotoxicity (CC50) in the genotype 1b replicon assay
Assay type: cell-based
stated conditions: human, GS4.1 cells; genotype 1b replicon assay as described in Example 32
parameter: CC50

compound	CC50
COc1ccc2c(O[C@H]3C[C@H]4C(=O)N(C)CCCC/C=C\[C@@H]5C[C@@]5(C(=O)NS(=O)(=O)C5CC5)NC(=O)N4C3)cc(-n3ccc(C(F)(F)F)n3)nc2c1Cl [Compound 91e]	10 to 75 µM
COc1ccc2c(O[C@H]3C[C@H]4C(=O)N(C)CCCC/C=C\[C@@H]5C[C@@]5(C(=O)NS(=O)(=O)C5(C)CC5)NC(=O)N4C3)cc(-c3nc(C(C)C)cs3)nc2c1Cl [Compound 56d]	10 to 75 µM
COc1ccc2c(O[C@H]3C[C@H]4C(=O)N(C)CCCC/C=C\[C@@H]5C[C@@]5(C(=O)NS(=O)(=O)C5CC5)NC(=O)N4C3)cc(-c3nc(C(C)C)cs3)nc2c1Cl [Compound 62d]	10 to 75 µM
COc1ccc2c(O[C@H]3C[C@H]4C(=O)N(C)CCCC/C=C\[C@@H]5C[C@@]5(C(=O)NS(=O)(=O)C5(C)CC5)NC(=O)N4C3)cc(-c3nc(C(F)(F)F)cs3)nc2c1C [Compound 68b]	10 to 75 µM

Kindly consider the entry below.
Data request, read-out CC50, for COc1ccc2c(O[C@H]3C[C@H]4C(=O)N(C)CCCC/C=C\[C@@H]5C[C@@]5(C(=O)NS(=O)(=O)C5CC5)NC(=O)N4C3)cc(-c3nc(C(F)(F)F)cs3)nc2c1C [Compound 69b]
> 75 µM

Reference source: patent US8003659B2
